MIC overview
- System: E. coli DH5α/pLBII
- ASSAY_TEXT: Broth microdilution MIC assay, empty vector control strain
- Type: cell-based
- RECORDED_CONDITIONS: Escherichia coli, read-out: E. coli DH5α/pLBII Microbiological Activity (MIC)
OUTCOME_MEASURE: MIC

INSERT INTO assay_data (compound, outcome_measure, measured_value) VALUES
  ('CCN1CCN(C(=O)N[C@H](CO)C(=O)N[C@H]2Cc3cccc(C(=O)O)c3OB2O)C(=O)C1=O', 'MIC', '32 to 64 mg/L'),
  ('CC(C)N1CCN(C(=O)NC(C(=O)N[C@H]2Cc3cccc(C(=O)O)c3OB2O)c2csc(N)n2)C(=O)C1=O (some centres unmarked)', 'MIC', '8 to 16 mg/L'),
  ('Nc1nc(C(NS(N)(=O)=O)C(=O)N[C@H]2Cc3cccc(C(=O)O)c3OB2O)cs1 (some centres unmarked)', 'MIC', '32 to 64 mg/L'),
  ('Nc1nc([C@@H](N)C(=O)N[C@H]2Cc3cccc(C(=O)O)c3OB2O)cs1', 'MIC', '> 512 mg/L'),
  ('COc1ccc([C@@H](N)C(=O)N[C@H]2Cc3cccc(C(=O)O)c3OB2O)cc1', 'MIC', '> 512 mg/L');

----------
- SYSTEM_NAME: PBP3 from Escherichia coli (Escherichia coli, UniProt P0AD68)
- Construct: made in house
- Sequence (P0AD68 1-577): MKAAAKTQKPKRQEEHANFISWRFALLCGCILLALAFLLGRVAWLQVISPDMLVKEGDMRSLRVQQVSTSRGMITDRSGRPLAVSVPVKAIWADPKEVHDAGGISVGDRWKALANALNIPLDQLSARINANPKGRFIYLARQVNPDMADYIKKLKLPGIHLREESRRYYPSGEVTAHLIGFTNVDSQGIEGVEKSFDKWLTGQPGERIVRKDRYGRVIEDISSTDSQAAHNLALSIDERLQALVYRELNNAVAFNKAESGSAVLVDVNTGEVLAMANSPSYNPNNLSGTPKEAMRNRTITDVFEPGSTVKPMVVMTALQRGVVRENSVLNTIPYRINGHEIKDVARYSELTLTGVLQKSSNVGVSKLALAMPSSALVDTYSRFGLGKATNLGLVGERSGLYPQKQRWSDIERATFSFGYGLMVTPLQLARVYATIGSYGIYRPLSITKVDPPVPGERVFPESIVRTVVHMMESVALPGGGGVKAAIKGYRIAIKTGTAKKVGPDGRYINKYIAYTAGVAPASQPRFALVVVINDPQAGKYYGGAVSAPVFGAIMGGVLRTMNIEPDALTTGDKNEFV
- ASSAY_TEXT: Fluorescence polarization competition binding assay with Bocillin-FL
pEC50: −log10 of the molar value.
Below, each of the molecules is paired with its reported pEC50 value.
OUTCOME_MEASURE: pEC50

INSERT INTO assay_data (molecule, outcome_measure, measured_value) VALUES
  ('Nc1nc(C(NC(=O)N2CCN(O)C(=O)C2=O)C(=O)N[C@H]2Cc3cccc(C(=O)O)c3OB2O)cs1 (stereo partly drawn)', 'pEC50', '3.30 to 4.52'),
  ('CS(=O)(=O)N1CCN(C(=O)NC(C(=O)N[C@H]2Cc3cccc(C(=O)O)c3OB2O)c2csc(N)n2)C1=O (stereo partly drawn)', 'pEC50', '3.30 to 4.52'),
  ('CCCCCCN1CCN(C(=O)NC(C(=O)N[C@H]2Cc3cccc(C(=O)O)c3OB2O)c2csc(N)n2)C(=O)C1=O (stereo partly drawn)', 'pEC50', '> 4.52');

Hello, the source for this data is patent US11332485B2, in case you need it.
